Reference source: BigSolDB 2.1

# Experimental context: in propionic acid, 318.15 K
Result type: solubility (mole fraction)

| Structure smiles string | Test value |
| --- | --- |
| CN1COCN(Cc2cnc(Cl)s2)C1=N[N+](=O)[O-] | 0.00739 |

* * *

# Experimental context: in 2-ethoxyethanol, 298.15 K

| Structure smiles string | solubility (mole fraction) |
| --- | --- |
| CN1COCN(Cc2cnc(Cl)s2)C1=N[N+](=O)[O-] | 0.00722 |

* * *

# Experimental context: in 2-ethoxyethanol, 318.15 K
Result type: solubility (mole fraction)

| Structure smiles string | Result type | Test value |
| --- | --- | --- |
| CN1COCN(Cc2cnc(Cl)s2)C1=N[N+](=O)[O-] | solubility (mole fraction) | 0.0141 |
